Origin of values: ChEMBL document CHEMBL4806963

Target: Frizzled-1 (Homo sapiens) (UniProt Q9UP38)
Sequence (Q9UP38 70-647 limits assumed): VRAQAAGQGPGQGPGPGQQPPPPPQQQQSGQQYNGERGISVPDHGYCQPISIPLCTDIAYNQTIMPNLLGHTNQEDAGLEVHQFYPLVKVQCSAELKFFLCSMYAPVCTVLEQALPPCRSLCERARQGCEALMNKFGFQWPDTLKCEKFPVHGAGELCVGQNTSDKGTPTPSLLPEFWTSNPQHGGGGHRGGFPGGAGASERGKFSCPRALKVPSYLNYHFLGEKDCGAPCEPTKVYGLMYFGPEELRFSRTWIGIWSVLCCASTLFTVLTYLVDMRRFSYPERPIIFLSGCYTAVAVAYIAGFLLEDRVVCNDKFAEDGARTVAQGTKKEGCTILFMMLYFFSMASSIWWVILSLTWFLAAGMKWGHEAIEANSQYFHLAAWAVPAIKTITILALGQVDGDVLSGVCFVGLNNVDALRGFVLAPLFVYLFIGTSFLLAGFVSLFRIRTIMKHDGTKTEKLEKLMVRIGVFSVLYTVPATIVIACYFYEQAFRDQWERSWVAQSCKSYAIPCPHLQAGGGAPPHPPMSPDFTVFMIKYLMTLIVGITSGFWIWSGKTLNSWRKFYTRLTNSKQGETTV
Experiment: Antagonist activity at Wnt3a-stimulated frizzled-1 (unknown origin) expressed in human HEK293superTOP flash cells at 10 nM incubated for 24 hrs by luciferase reporter gene assay
Type: functional, cell-based
Conditions: HEK293
Activity calls are given as the source filed them. The rule behind the calls is not given here. Where a SMILES comes first, the peptide text is derived from it.
readout label: inhibition

• CSCC[C@H](NC(=O)CNC(=O)[C@H](CCC(=O)O)NC(=O)[C@H](C)NC(=O)[C@@H](NC(=O)[C@H](CCCCN)NC(=O)[C@H](CC(N)=O)NC(=O)[C@H](CS)NC(C)=O)[C@@H](C)O)C(=O)N[C@@H](CC(=O)O)C(=O)NCC(=O)N[C@@H](CS)C(=O)N[C@@H](CCC(=O)O)C(=O)N[C@@H](CC(C)C)C(N)=O (Ac-CNKTAEGMDGCEL-NH2) = inactive
• CC[C@H](C)[C@H](NC(=O)CNC(=O)[C@H](Cc1cnc[nH]1)NC(=O)[C@H](CO)NC(=O)[C@H](CO)NC(=O)[C@@H](NC(=O)[C@H](CC(N)=O)NC(=O)[C@@H](N)CS)C(C)C)C(=O)N[C@@H](CC(=O)O)C(=O)NCC(=O)N[C@@H](CS)C(=O)N[C@@H](CC(=O)O)C(=O)N[C@@H](CC(C)C)C(=O)O (H-CNVSSHGIDGCDL-OH) = inactive
• CSCC[C@H](NC(=O)[C@H](C)NC(=O)[C@H](CCC(=O)O)NC(=O)[C@H](CO)NC(=O)[C@H](C)NC(=O)[C@H](CCCCN)NC(=O)[C@H](CC(N)=O)NC(=O)[C@H](CS)NC(C)=O)C(=O)N[C@@H](C)C(=O)NCC(=O)N[C@@H](CS)C(=O)N[C@@H](CCC(=O)O)C(=O)N[C@@H](CC(C)C)C(N)=O (Ac-CNKASEAMAGCEL-NH2) = inactive
